# test-details: qHTS profiling for inhibitors of Plasmodium falciparum proliferation (AID 504749); further: nearly all actives have a fitted effect of over 60% in size;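 on activity, negative = inhibition: 0% = DMSO vehicle and full inhibition = artemisinin control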
# experimental-setup: P. falciparum in erythrocytes, SYBR Green DNA, 72 h; at 28.7 µM (top of the series); parasite line A
Results filed as inconclusive are left out.
recorded-metric: activity, negative = inhibition (%)

1) O=C(O)CCC(=O)C(=O)O: 2.78
2) CCCCCCCCCCCCCCCC(=O)OCC(COC(=O)CCCCCCCCCCCCCCC)OC(=O)CCCCCCCCCCCCCCC: -0.409
3) O=C1CSC2(CCN(CCCN3c4ccccc4Sc4ccc(Cl)cc43)CC2)N1: -17.8
4) CC1=C(/C=C/C(C)=C/C=C/C(C)=C/C=C/C=C(C)/C=C/C=C(C)/C=C/C2=C(C)C(=O)CCC2(C)C)C(C)(C)CCC1=O: -4.18
5) CN1C(=O)CN2CCc3ccccc3C2c2cc(Cl)ccc21 (centres undefined): -10.8
6) CCCCCCCC(=O)O: 5.42
7) O=C(O)CN(CCN(CC(=O)O)CC(=O)O)CC(=O)O: -1.94
8) O=C(O)c1cc(O)c2c(c1)[O][Bi][O]2: -9.75
9) CCCCCCCC/C=C\CCCCCCCC(=O)O: 12.9
10) Cc1ccccc1: 1.71
11) CCC(=O)NCCC1CCc2ccc3c(c21)CCO3 (centres undefined): 6.95
12) O=CCCCC=O: -0.127
13) CN(C)CCCN1c2ccccc2C(C)(C)c2ccccc21: -5.82
14) CC1(C)C(C=C(Cl)Cl)C1C(=O)OCc1cccc(Oc2ccccc2)c1 (centres undefined): -2.63
15) COCC(=O)Nc1cc(Sc2ccccc2)ccc1N=C(NC(=O)OC)NC(=O)OC: 17.1
16) O=S(=O)(O)c1ccc2c(N=Nc3ccc(S(=O)(=O)O)c4ccccc34)c(O)c(S(=O)(=O)O)cc2c1: -19.8
17) CC(C)=O: -12.1
18) CCOC(C)=O: 0.182
19) CCCCCC(CC)COC(=O)CC(C(=O)OCC(CC)CCCC)S(=O)(=O)O (centres undefined): 7.28

====

# tgt: Luciferin 4-monooxygenase (Photinus pyralis) (UniProt P08659)
# Sequence (P08659 whole entry, looked up): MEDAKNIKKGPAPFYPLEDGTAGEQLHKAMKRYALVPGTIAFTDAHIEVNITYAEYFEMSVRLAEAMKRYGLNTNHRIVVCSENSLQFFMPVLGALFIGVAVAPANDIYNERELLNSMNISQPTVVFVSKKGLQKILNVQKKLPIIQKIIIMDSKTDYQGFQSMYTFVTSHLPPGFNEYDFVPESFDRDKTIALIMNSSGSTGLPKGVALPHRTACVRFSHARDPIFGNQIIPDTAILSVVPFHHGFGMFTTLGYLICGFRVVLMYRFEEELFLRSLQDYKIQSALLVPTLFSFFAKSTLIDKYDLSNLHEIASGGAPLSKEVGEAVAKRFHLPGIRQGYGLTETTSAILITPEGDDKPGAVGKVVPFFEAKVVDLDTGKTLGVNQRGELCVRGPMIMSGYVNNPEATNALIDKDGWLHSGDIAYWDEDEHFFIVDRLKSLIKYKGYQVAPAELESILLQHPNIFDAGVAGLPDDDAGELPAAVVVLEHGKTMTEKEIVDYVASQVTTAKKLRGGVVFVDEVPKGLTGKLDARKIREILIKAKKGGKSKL
# test-details: Biochemical firefly luciferase enzyme assay for NPC (AID 624030); further: nearly all actives have a fitted effect of over 70% in size
# experimental-setup: purified P. pyralis luciferase, luminescence, 5 min; series mostly up to 58.6 µM
Inconclusive results are not listed. Calls of active or inactive are those of the source. Calls follow the shape of the dose curve; as a rule, active = well fitted inhibition curve with a large enough effect; inconclusive = small, poorly fitted or top-dose-only effect; inactive = flat fitted curve, though single readings scatter.
Labels: active, inactive

1. CN1Cc2c(N)cccc2C(c2ccccc2)C1 (configuration not stated): inactive
2. CCN(CC)CCOc1ccc(-c2nc3cc(Cl)ccc3s2)cc1: active
3. O=S(=O)(O)O: inactive
4. CC(O)CO (configuration not stated): inactive
5. O=C(O)CN(CCN(CC(=O)O)CC(=O)O)CC(=O)O: inactive
6. CCCC(=O)O[C@]1(C(=O)CCl)[C@H](C)C[C@@H]2[C@H]3CCC4=CC(=O)C=C[C@]4(C)[C@@]3(F)C(=O)C[C@@]21C: inactive
7. Cc1c(C)c2c(c(C)c1O)CC[C@@](C)(CCC[C@@H](C)CCC[C@@H](C)CCCC(C)C)O2: inactive

====

# Test system: CP191
# test-details: qHTS profiling for inhibitors of Plasmodium falciparum proliferation (AID 504749); further: nearly all actives have a fitted effect of over 60% in size
# experimental-setup: P. falciparum in erythrocytes, SYBR Green DNA, 72 h; series mostly up to 28.7 µM
Inconclusive results are not listed. The source made the active and inactive calls. Calls come from the whole dose curve; as a rule, active = well fitted inhibition curve with a large enough effect; inconclusive = small, poorly fitted or top-dose-only effect; inactive = flat fitted curve, though single readings scatter.
Labels: 1 (yes) (active), 0 (no) (inactive)

1. O=C(O)c1cc(O)c2c(c1)[O][Bi][O]2: 0 (no)
2. CO[C@H](C(=O)[C@@H](O)[C@@H](C)O)C1Cc2cc3cc(O[C@H]4C[C@@H](O[C@H]5C[C@@H](O)[C@H](O)[C@@H](C)O5)[C@@H](O)[C@@H](C)O4)c(C)c(O)c3c(O)c2C(=O)[C@H]1O[C@H]1C[C@@H](O[C@H]2C[C@@H](O[C@H]3C[C@](C)(O)[C@H](O)[C@@H](C)O3)[C@H](O)[C@@H](C)O2)[C@H](O)[C@@H](C)O1 (some centres not stated): 1 (yes)
3. CCOc1ccc(N=Nc2ccc(N)cc2N)cc1: 0 (no)
4. Cc1cn([C@H]2C[C@H](O)[C@@H](CO)O2)c(=O)[nH]c1=O: 0 (no)
5. CC(NNC(=O)c1ccccc1)c1ccccc1 (configuration not stated): 0 (no)
6. CC1=C(/C=C/C(C)=C/C=C/C(C)=C/C=C/C=C(C)/C=C/C=C(C)/C=C/C2=C(C)C(=O)CCC2(C)C)C(C)(C)CCC1=O: 0 (no)
7. Cc1ccccc1OCC(O)CNCCOc1ccc(C(N)=O)cc1 (configuration not stated): 0 (no)

Data origin, for the record: PubChem BioAssay (NCATS)
